study target: human alpha4,beta,delta GABAA receptor subtype (Homo sapiens, UniProt P28472+P48169)
Construct: expressed in transfected cells; host or cells: HEK-293
Sequence (P48169 36-554): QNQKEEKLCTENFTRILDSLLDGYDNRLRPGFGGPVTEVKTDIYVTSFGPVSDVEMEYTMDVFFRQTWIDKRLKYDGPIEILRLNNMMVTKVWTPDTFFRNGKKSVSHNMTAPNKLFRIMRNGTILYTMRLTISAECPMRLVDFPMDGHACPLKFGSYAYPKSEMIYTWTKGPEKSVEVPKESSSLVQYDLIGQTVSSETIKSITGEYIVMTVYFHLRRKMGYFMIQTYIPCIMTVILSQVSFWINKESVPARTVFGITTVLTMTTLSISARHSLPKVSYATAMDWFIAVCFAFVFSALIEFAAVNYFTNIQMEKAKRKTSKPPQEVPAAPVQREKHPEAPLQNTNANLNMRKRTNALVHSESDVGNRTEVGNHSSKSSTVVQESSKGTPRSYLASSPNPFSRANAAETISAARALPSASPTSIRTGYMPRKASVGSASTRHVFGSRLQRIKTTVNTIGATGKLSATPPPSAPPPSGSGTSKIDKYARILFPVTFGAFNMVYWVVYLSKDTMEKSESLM
Sequence (P28472 26-473): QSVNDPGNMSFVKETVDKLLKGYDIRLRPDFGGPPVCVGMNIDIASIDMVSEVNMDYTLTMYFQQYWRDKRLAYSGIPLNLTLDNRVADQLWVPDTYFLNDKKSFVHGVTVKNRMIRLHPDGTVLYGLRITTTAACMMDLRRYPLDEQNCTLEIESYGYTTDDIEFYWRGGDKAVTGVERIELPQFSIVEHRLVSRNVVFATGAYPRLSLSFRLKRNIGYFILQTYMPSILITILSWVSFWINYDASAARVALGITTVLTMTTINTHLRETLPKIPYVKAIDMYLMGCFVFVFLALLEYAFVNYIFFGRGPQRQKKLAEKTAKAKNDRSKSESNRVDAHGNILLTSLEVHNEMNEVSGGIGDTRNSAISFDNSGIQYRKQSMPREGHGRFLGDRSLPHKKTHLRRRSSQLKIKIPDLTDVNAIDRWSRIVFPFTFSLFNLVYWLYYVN
Sequence (O14764 17-452 partner limits assumed): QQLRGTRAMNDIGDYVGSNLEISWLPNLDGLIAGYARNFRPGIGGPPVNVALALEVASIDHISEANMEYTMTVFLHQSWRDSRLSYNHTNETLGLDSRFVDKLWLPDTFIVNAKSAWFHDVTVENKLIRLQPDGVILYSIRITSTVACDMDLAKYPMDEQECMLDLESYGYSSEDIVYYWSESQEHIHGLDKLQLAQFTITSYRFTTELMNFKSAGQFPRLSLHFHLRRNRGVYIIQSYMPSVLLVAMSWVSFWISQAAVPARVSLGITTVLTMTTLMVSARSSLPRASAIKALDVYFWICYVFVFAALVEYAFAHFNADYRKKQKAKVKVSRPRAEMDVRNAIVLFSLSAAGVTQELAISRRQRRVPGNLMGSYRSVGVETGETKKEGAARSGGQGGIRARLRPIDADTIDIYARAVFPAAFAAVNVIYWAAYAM
assay name: Patch-clamp (Dynaflow system) current response in HEK-293 cells transfected with alpha4,beta3,delta GABAA receptor
Format: cell-based
run conditions: read-out: EC50, enhancement of GABA mediated current response
measured property: EC50 (nM)
Please respond with the number in nM and leave the unit unwritten.

Param item = C[C@]12CC[C@@H](O)C[C@H]1CC[C@@H]1[C@@H]2CC[C@]2(C)[C@@H](C(=O)CO)CC[C@@H]12 [THDOC, Tetrahydrodeoxycorticosterone, reference compound] ; retrieve measured EC50. 47
